The reported numbers originate from patent US20240067631A1.

TGT: human NAMPT (Homo sapiens (Human))
Sequence (P43490 whole entry): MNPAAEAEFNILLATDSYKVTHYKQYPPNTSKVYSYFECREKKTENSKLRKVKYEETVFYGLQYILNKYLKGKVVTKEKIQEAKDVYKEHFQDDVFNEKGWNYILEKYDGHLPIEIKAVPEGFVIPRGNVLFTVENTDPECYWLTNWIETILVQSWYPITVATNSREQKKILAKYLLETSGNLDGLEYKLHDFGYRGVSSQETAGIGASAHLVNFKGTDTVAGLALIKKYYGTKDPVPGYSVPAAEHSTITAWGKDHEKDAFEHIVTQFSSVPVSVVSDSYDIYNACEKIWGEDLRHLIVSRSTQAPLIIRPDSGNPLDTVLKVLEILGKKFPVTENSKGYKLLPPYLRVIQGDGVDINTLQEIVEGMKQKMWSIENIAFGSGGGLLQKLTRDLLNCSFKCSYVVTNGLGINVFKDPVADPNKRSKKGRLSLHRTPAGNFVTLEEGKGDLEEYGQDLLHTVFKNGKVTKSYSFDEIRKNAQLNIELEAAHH
ASSAY_PROCEDURE: Human recombinant enzyme assay (NMN fluorescence biochemical assay)
EXPERIMENTAL_CONTEXT: concentration that gives half-maximal activation; 6 nM human NAMPT, 60 min
OBSERVATION_TYPE: EC50 (µM)

Cc1nc(C(=O)N2CC3(CCC3)C2)nc(NCCc2cn[nH]c2)c1C | 26.4
Cc1nc(C(=O)N[C@H](C)c2coc3ccccc23)nc(NCCc2cn[nH]c2)c1C | 1.69
Cc1nc(C(=O)NC(c2ccccc2F)c2nccn2C)nc(NCCc2cn[nH]c2)c1C (stereo not shown) | 5.15
COc1cccc(CNC(=O)c2nc(C)c(C)c(NCCc3cn[nH]c3)n2)n1 | 7.21
Cc1nc(C(=O)N2CCOC[C@@H]2c2ccccc2)nc(NCCc2cn[nH]c2)c1C | 2.29
Cc1nc(C(=O)N2CC[C@@H](c3ccccc3)C2)nc(NCCc2cn[nH]c2)c1C | 2.11
COc1cccnc1[C@@H](C)NC(=O)c1nc(C)c(C)c(NCCc2cn[nH]c2)n1 | 12
Cc1nc(C(=O)NC2(Cc3ccc(F)cc3Cl)CCOCC2)nc(NCCc2cn[nH]c2)c1C | 8.35
Cc1nc(C(N)=O)nc(N(CCc2ccccc2)CCc2cn[nH]c2)c1C | 0.131
Cc1nc(C(=O)NCC(O)(c2ccccc2)C(F)(F)F)nc(NCCc2cn[nH]c2)c1C (stereo not shown) | 16.7
Cc1nc(C(=O)N[C@H](C)c2ccccc2Cl)nc(NCCc2cn[nH]c2)c1C | 0.429
Cc1nc(C(=O)NC(C)c2ncco2)nc(NCCc2cn[nH]c2)c1C (stereo not shown) | 18.1
Cc1nc(C(=O)NC(c2ccccc2)C(F)(F)F)nc(NCCc2cn[nH]c2)c1C (stereo not shown) | 1.38
Cc1nc(C(=O)NCc2coc3ccccc23)nc(NCCc2cn[nH]c2)c1C | 0.788
Cc1nc(C(=O)N(C)[C@H](C)c2ccccc2Cl)nc(NCCc2cn[nH]c2)c1C | 2.6
Cc1cccc([C@H]2CCCN2C(=O)c2nc(C)c(C)c(NCCc3cn[nH]c3)n2)n1 | 10.8
Cc1nc(C(=O)N2CC(O)(C(F)(F)F)C2)nc(NCCc2cn[nH]c2)c1C | 6.83
Cc1nc(C(=O)NC(C)c2cccc(Cl)n2)nc(NCCc2cn[nH]c2)c1C (stereo not shown) | 0.882
Cc1nc(C(=O)N2CCOCC2C(F)(F)F)nc(NCCc2cn[nH]c2)c1C (stereo not shown) | 30.7
COc1cccc(C(C)NC(=O)c2nc(C)c(C)c(NCCc3cn[nH]c3)n2)n1 (stereo not shown) | 1.64
Cc1nc(C(=O)N[C@H]2C[C@@H](c3ccccc3)C2)nc(NCCc2cn[nH]c2)c1C | 17.5
Cc1nc(C(=O)N2CCCC2Cc2ccccc2)nc(NCCc2cn[nH]c2)c1C (stereo not shown) | 6.07
Cc1nc(C(=O)Nc2ccncc2F)nc(NCCc2cn[nH]c2)c1C | 18.4
Cc1nc(C(=O)NCCS(=O)(=O)Cc2ccccc2)nc(NCCc2cn[nH]c2)c1C | 20.3
Cc1nc(C(=O)NCCc2ccccc2)nc(NCCc2cn[nH]c2)c1C | 2.08
Cc1nc(C(=O)N2CC(C)(c3ccccc3)C2)nc(NCCc2cn[nH]c2)c1C | 37.3
Cc1nc(C(=O)N2CC(O)(c3ccccc3F)C2)nc(NCCc2cn[nH]c2)c1C | 13.7
Cc1ccc(C(C)NC(=O)c2nc(C)c(C)c(NCCc3cn[nH]c3)n2)s1 (stereo not shown) | 41
Cc1nc(C(=O)N2CCOC[C@H]2c2ccccc2)nc(NCCc2cn[nH]c2)c1C | 0.621
Cc1nc(C(=O)N[C@@H](C)c2ccccc2Cl)nc(NCCc2cn[nH]c2)c1C | 20
Cc1nc(C(=O)N2CC[C@H](c3ccccc3)C2)nc(NCCc2cn[nH]c2)c1C | 1.78
Cc1nc(C(=O)N[C@H](C)c2ccsc2)nc(NCCc2cn[nH]c2)c1C | 0.617
COc1cccc([C@@H](C)NC(=O)c2nc(C)c(C)c(NCCc3cn[nH]c3)n2)n1 | 0.827
Cc1nc(C(=O)N[C@H](C)c2ccccn2)nc(NCCc2cn[nH]c2)c1C | 2
